System: K9022 Zymoseptoria tritici CYP51 L50S V136A I381V Y461S S524T
Assay: in vitro antifungal test, Z. tritici spore suspension in PDB
Assay type: cell-based
Conditions: isolate K9022; growth at 3 days post exposure; average of two replicates
So basically, if EC50 (ppm) comes in under 0.6 ppm it's Met, and if it's 0.6 ppm or more it's Not met.

COC(=O)C(O)(Cn1cncn1)c1ccc(Oc2ccc(Cl)cc2)cc1Cl (single isomer, unassigned; (-)) [(−)-enantiomer of Compound I-1]
Met
COC(=O)C(O)(Cn1cncn1)c1ccc(Oc2ccc(Cl)cc2)cc1C(F)(F)F (single isomer, unassigned; (-)) [(−)-enantiomer of Compound I-2]
Met
COC(=O)C(O)(Cn1cncn1)c1ccc(Oc2ccc(Cl)cc2)cc1C(F)(F)F (single isomer, unassigned; (+)) [(+)-enantiomer of Compound I-2]
Not met
COC(=O)C(O)(Cn1cncn1)c1ccc(Oc2ccc(Cl)cc2)cc1C(F)(F)F (racemic) [Racemate Compound I-2]
Not met

Find out if reported EC50 (ppm) for COC(=O)C(O)(Cn1cncn1)c1ccc(Oc2ccc(Cl)cc2)cc1Cl (single isomer, unassigned; (+)) [(+)-enantiomer of Compound I-1] is less than 0.6 ppm
Not met
